- Tested on: Glutathione peroxidase 1 (Homo sapiens)
- Run description: Primary qHTS Assay for Inhibitors of Recombinant Selenoprotein Glutathione Peroxidase 1 (GPX1) (AID 1845191); note: nearly all actives have a fitted effect of over 65% in size; note: potency is the fitted concentration of half-maximal effect
- Setup conditions: recombinant GPX1, GR-coupled NADPH fluorescence, 15 min; series mostly up to 48.8 µM
- Experimental: Assay Provider: Elias S.J. Arner MD PhD. Department of Medical Biochemistry and Biophysics Karolinska Institutet, Solna, Stockholm, Sweden […] 5; Detection; Fluorescence; ViewLux microplate reader, excitation 340 nm and emission 450 nm. […] 7; Detection; Fluorescence; ViewLux microplate reader, excitation 340 nm and emission 450 nm. […] 5. Initial fluorescence readout (t=0) at 340/450 nm was measured using a ViewLux multimodal detector (PerkinElmer, Waltham, MA). […]
Inconclusive results are not listed. Calls of active or inactive are those of the source. Calls come from the whole dose curve; as a rule, active = well fitted inhibition curve with a large enough effect; inconclusive = small, poorly fitted or top-dose-only effect; inactive = flat fitted curve, though single readings scatter.
Quantity measured: Potency

Worked examples follow.
* OC[C@H]1O[C@@H](n2cnc3c(NC4CCCCC4)ncnc32)[C@H](O)[C@@H]1O | inactive
* O=C(O)CNC(=O)C(CS)Cc1ccccc1 (stereo not drawn) | inactive
* C#C[C@]1(O)CC[C@H]2[C@@H]3CCc4cc(O)ccc4[C@H]3CC[C@@]21C | inactive
* C=CCc1cccc(/C=N/NC(=O)CN2CCN(Cc3ccccc3)CC2)c1O | inactive
* CCCCCCCC/C=C/C(=O)O | inactive
* C[C@@H](CN1CCC(Cc2ccccc2)CC1)[C@@H](O)c1ccc(O)cc1 | inactive

I have this molecule here, CC(=O)N[C@H](C(=O)O)C(C)(C)SN=O , and I need its recorded Potency.
inactive

I have this molecule here, COc1ccc(-c2cc(=S)ss2)cc1 , and I need its recorded Potency.
11.4 µM (active)

I have this molecule here, CC[C@H]1OC(=O)[C@H](C)C(O[C@H]2C[C@@](C)(OC)[C@@H](O)[C@H](C)O2)[C@H](C)[C@@H](OC2O[C@H](C)C[C@H](N(C)C)[C@H]2O)[C@](C)(O)C[C@@H](C)CN(C)[C@H](C)[C@@H](O)[C@]1(C)O (stereo partly drawn) , and I need its recorded Potency.
inactive
